- system_tested: skeletal myofibrils (myosin ATPase activity)
- assay_details: Skeletal Myofibril ATPase Assay
- Assay type: biochemical
- applied_conditions: PK-LDH coupled, absorbance at 340 nm
pIC50: −log10 of the molar value.

- compound: "O=c1ccc(-c2cnc(OCC(F)(F)F)nc2)nn1Cc1nnc(N2CCCCC2)s1 [Compound 95]"
  pIC50: "> 5.00"
- compound: "COCc1cc(Cn2nc(-c3cnc(OCC(F)(F)F)nc3)ccc2=O)on1 [Compound 56]"
  pIC50: "> 5.00"
- compound: "CC(C)COc1ncc(-c2ccc(=O)n(Cc3cncc(F)c3)n2)cn1 [Compound 110]"
  pIC50: "> 5.00"
- compound: "CCc1noc(Cn2nc(-c3ccc(OC(F)F)cc3)ccc2=O)n1 [Compound 213]"
  pIC50: "4.00 to 5.00"
- compound: "Cc1cnoc1Cn1nc(-c2cnc(OCC(F)(F)F)nc2)ccc1=O [Compound 34]"
  pIC50: "> 5.00"
- compound: "Cc1ccc(-c2ccc(=O)n(Cc3nc(-c4cccc(Cl)c4)no3)n2)cc1 [Compound 314]"
  pIC50: "< 4.00"
- compound: "CCc1ncc(Cn2nc(-c3cnc(OCC(C)(F)F)nc3)ccc2=O)s1 [Compound 129]"
  pIC50: "> 5.00"
- compound: "O=c1ccc(-c2cnc(OCC(F)F)nc2)nn1Cc1cncc(F)c1 [Compound 106]"
  pIC50: "> 5.00"
- compound: "O=c1ccc(-c2cnc(OCC(F)(F)F)nc2)nn1Cc1cncc(F)n1 [Compound 118]"
  pIC50: "> 5.00"
- compound: "Cc1ncc(Cn2nc(-c3cnc(OCC(F)(F)F)nc3)ccc2=O)s1 [Compound 61]"
  pIC50: "> 5.00"
- compound: "O=c1ccc(-c2ccc(NC34CC(C3)C4)nc2)nn1Cc1cccnc1 [Compound 71]"
  pIC50: "> 5.00"
- compound: "O=c1ccc(-c2ccc(OC(F)F)cc2)nn1Cc1nnc(-c2ccccc2)s1 [Compound 201]"
  pIC50: "> 5.00"
- compound: "O=c1ccc(-c2cnc(OCC(F)(F)F)nc2)nn1Cc1nnc(-c2ccnc(O)c2)s1 [Compound 44]"
  pIC50: "4.00 to 5.00"
- compound: "COc1ccc(-c2ccc(=O)n(Cc3cc(=O)n4ccccc4n3)n2)cc1 [Compound 307]"
  pIC50: "4.00 to 5.00"
- compound: "O=c1ccc(-c2ccc(OC(F)F)nc2)nn1Cc1cn[nH]c1-c1ccccc1 [Compound 23]"
  pIC50: "< 4.00"
- compound: "O=c1ccc(-c2cnc(OCC(F)(F)F)nc2)nn1Cc1cnco1 [Compound 53]"
  pIC50: "> 5.00"
- compound: "N#Cc1cncc(Cn2nc(-c3ccc(OC(F)F)nc3)ccc2=O)c1 [Compound 57]"
  pIC50: "4.00 to 5.00"
- compound: "O=c1ccc(-c2cnc(OCC(F)(F)F)nc2)nn1Cc1cnc(C2CC2)s1 [Compound 100]"
  pIC50: "> 5.00"
- compound: "CSc1ncc(-c2ccc(=O)n(Cc3cc(C)no3)n2)cn1 [Compound 65]"
  pIC50: "> 5.00"
- compound: "COCCOc1ncc(-c2ccc(=O)n(Cc3cncc(F)c3)n2)cn1 [Compound 70]"
  pIC50: "> 5.00"
- compound: "Cc1nnc(Cn2nc(-c3ccc(OC(F)F)cc3)ccc2=O)s1 [Compound 223]"
  pIC50: "4.00 to 5.00"
- compound: "O=c1ccc(-c2ccc(OC(F)F)cc2)nn1Cc1ccncn1 [Compound 225]"
  pIC50: "< 4.00"
- compound: "O=c1ccc(-c2cnc(OCC(F)(F)F)nc2)nn1Cc1cc(C2CC2)no1 [Compound 31]"
  pIC50: "> 5.00"
- compound: "Cc1cnc(Cn2nc(-c3ccc(OC(F)F)cc3)ccc2=O)[nH]1 [Compound 224]"
  pIC50: "< 4.00"
- compound: "Cc1csc(Cn2nc(-c3ccc(OC(F)F)cc3)ccc2=O)n1 [Compound 205]"
  pIC50: "> 5.00"
- compound: "O=c1ccc(-c2ccc(NC34CC(C3)C4)nc2)nn1Cc1cncc(F)c1 [Compound 72]"
  pIC50: "> 5.00"
- compound: "O=c1ccc(-c2cnc(OCC(F)(F)F)nc2)nn1Cc1cncc(C(F)(F)F)c1 [Compound 77]"
  pIC50: "> 5.00"
- compound: "O=c1ccc(-c2cnc(OCC(F)(F)F)nc2)nn1Cc1cnc(C2CCC2)s1 [Compound 122]"
  pIC50: "> 5.00"
- compound: "O=c1ccc(-c2cnc(OCC(F)(F)F)nc2)nn1Cc1ccnc(O)c1 [Compound 42]"
  pIC50: "4.00 to 5.00"
- compound: "Cn1cc(Cn2nc(-c3cnc(OCC(F)(F)F)nc3)ccc2=O)cn1 [Compound 58]"
  pIC50: "> 5.00"
- compound: "O=c1ccc(-c2cnc(OCC(F)(F)F)nc2)nn1Cc1cnoc1 [Compound 85]"
  pIC50: "4.00 to 5.00"
- compound: "CC(C)Oc1ncc(-c2ccc(=O)n(Cc3cncc(F)c3)n2)cn1 [Compound 115]"
  pIC50: "> 5.00"
- compound: "COc1ccc(-c2ccc(=O)n(Cc3nc(-c4ccc(OC)cc4)no3)n2)cc1 [Compound 315]"
  pIC50: "> 5.00"
- compound: "COC(C)(C)COc1ncc(-c2ccc(=O)n(Cc3cncc(F)c3)n2)cn1 [Compound 125]"
  pIC50: "> 5.00"
- compound: "O=c1ccc(-c2cnc(OCC(F)(F)F)nc2)nn1Cc1cc(-c2ccccc2)no1 [Compound 27]"
  pIC50: "> 5.00"
- compound: "O=c1ccc(-c2cnc(OCC(F)(F)F)nc2)nn1Cc1cnc(O)c(Cl)c1 [Compound 84]"
  pIC50: "< 4.00"

---

Below, each of the compounds is paired with its reported pIC50 value.
- system_tested: skeletal myofibrils (myosin ATPase activity)
- assay_details: Skeletal Myofibril ATPase Assay
- applied_conditions: PK-LDH coupled, absorbance at 340 nm
pIC50: −log10 of the molar value.

- compound: "CC1CCCN1c1ncc(-c2ccc(=O)n(Cc3cncc(F)c3)n2)cn1 (stereo not drawn)"
  pIC50: "> 5.00"
- compound: "O=c1ccc(-c2cnc(OCC(F)(F)F)nc2)nn1Cc1cnc(C(F)F)s1"
  pIC50: "> 5.00"
- compound: "Cc1noc(Cn2nc(-c3ccc(OC(F)F)cc3)ccc2=O)n1"
  pIC50: "4.00 to 5.00"
- compound: "O=c1ccc(-c2ccc(OC(F)F)cc2)nn1Cc1nccn1CC(F)(F)F"
  pIC50: "< 4.00"
- compound: "CSc1cncc(Cn2nc(-c3cnc(OCC(F)(F)F)nc3)ccc2=O)c1"
  pIC50: "> 5.00"
- compound: "CCOC(=O)c1cc(Cn2nc(-c3cnc(OCC(F)(F)F)nc3)ccc2=O)on1"
  pIC50: "> 5.00"
- compound: "Cc1noc(Cn2nc(-c3cnc(OCC(F)(F)F)nc3)ccc2=O)c1C"
  pIC50: "< 4.00"
- compound: "O=c1ccc(-c2cnc(OCC3(F)COC3)nc2)nn1Cc1cncc(F)c1"
  pIC50: "> 5.00"
- compound: "COc1cncc(Cn2nc(-c3cnc(OCC(F)(F)F)nc3)ccc2=O)c1"
  pIC50: "> 5.00"

---

- system_tested: skeletal myofibrils (myosin ATPase activity)
- assay_details: Skeletal Myofibril ATPase Assay
- applied_conditions: PK-LDH coupled, absorbance at 340 nm
observation_type: IC50

- compound: "O=c1ccc(-c2cnc(OCC(F)(F)F)nc2)nn1Cc1cncc(Cl)c1 [Compound 1]"
  observation_type: "IC50"
  result: "< 10 µM"
- compound: "O=c1ccc(-c2cnc(OCC(F)(F)F)nc2)nn1Cc1cc(CO)no1 [Compound 43]"
  observation_type: "IC50"
  result: "10 to 100 µM"
- compound: "O=c1ccc(-c2cnc(NC34CC(C3)C4)nc2)nn1Cc1cncc(Cl)c1 [Compound 75]"
  observation_type: "IC50"
  result: "< 10 µM"
- compound: "O=c1ccc(-c2cnc(OCC(F)(F)F)nc2)nn1Cc1nc2cc(F)ccc2o1 [Compound 55]"
  observation_type: "IC50"
  result: "< 10 µM"
- compound: "O=c1ccc(-c2ccc(OC(F)F)cc2)nn1Cc1nnc(C(F)(F)F)s1 [Compound 229]"
  observation_type: "IC50"
  result: "> 100 µM"

---

Below, each of the compounds is paired with its reported pIC50 value.
- system_tested: skeletal myofibrils (myosin ATPase activity)
- assay_details: Skeletal Myofibril ATPase Assay
- applied_conditions: PK-LDH coupled, absorbance at 340 nm
pIC50: −log10 of the molar value.

- compound_smiles: "Cc1cc(Cn2nc(-c3ccc(OC(F)F)cc3)ccc2=O)on1"
  pIC50: "> 5.00"
- compound_smiles: "O=c1ccc(-c2ccc(OC(F)F)cc2)nn1Cc1ccc(Cl)cn1"
  pIC50: "4.00 to 5.00"
- compound_smiles: "Cc1cc(O)c(Cn2nc(-c3cnc(OCC(F)(F)F)nc3)ccc2=O)cn1"
  pIC50: "< 4.00"
- compound_smiles: "CCc1cc(Cn2nc(-c3ccc(OC(F)F)cc3)ccc2=O)on1"
  pIC50: "> 5.00"
- compound_smiles: "COc1ccc(-c2ccc(=O)n(Cc3nc(-c4ccccc4)no3)n2)cc1"
  pIC50: "> 5.00"
